Values compiled from patent US8680290B2.

- Tested on: Monocotyledonous and dicotyledonous test plants
- assay.overview: Example B1 herbicidal action, application post-emergence (Table B1a)
- Format: in vivo
- condition.parameters: Sida, 250 g/ha, evaluated after 3 weeks, scale 0-10
For each record, check the reported herbicidal damage rating, Sida: if it is below 4 write 1 (yes), else write 0 (no).

[
  {
    "compound": "CC1(C)CC(S(=O)(=O)C(F)(F)c2ccccc2C(F)(F)F)=NO1",
    "group.label": "1 (yes)"
  },
  {
    "compound": "CC1(C)CC(S(=O)(=O)C(F)(F)c2ccccc2C#N)=NO1",
    "group.label": "1 (yes)"
  },
  {
    "compound": "CC1(C)CC(S(=O)(=O)C(F)(Cl)c2ccccc2C(F)(F)F)=NO1 (racemic)",
    "group.label": "1 (yes)"
  },
  {
    "compound": "Cn1nc(C(F)(F)F)c(C(Cl)(Cl)S(=O)(=O)C2=NOC(C)(C)C2)c1OCC(F)(F)F",
    "group.label": "0 (no)"
  },
  {
    "compound": "COc1ccccc1C(F)(F)S(=O)(=O)C1=NOC(C)(C)C1",
    "group.label": "0 (no)"
  },
  {
    "compound": "CC1(C)CC(S(=O)(=O)C(Br)c2c(F)cccc2F)=NO1 (stereo not shown)",
    "group.label": "1 (yes)"
  },
  {
    "compound": "COc1ccccc1C(F)(Cl)S(=O)(=O)C1=NOC(C)(C)C1 (stereo not shown)",
    "group.label": "1 (yes)"
  },
  {
    "compound": "CC1(C)CC(S(=O)(=O)C(F)(F)c2ccccc2OC(F)F)=NO1",
    "group.label": "0 (no)"
  },
  {
    "compound": "CC1(C)CC(S(=O)(=O)C(Br)c2cccc(F)c2F)=NO1 (stereo not shown)",
    "group.label": "1 (yes)"
  },
  {
    "compound": "Cn1nc(C(F)(F)F)c(C(F)(Cl)S(=O)(=O)C2=NOC(C)(C)C2)c1OCC(F)(F)F (stereo not shown)",
    "group.label": "0 (no)"
  }
]

Ask: Strictly below 4 in herbicidal damage rating, Sida? CC1(C)CC(S(=O)(=O)C(F)(Cl)c2ccccc2-c2ccccc2)=NO1 (stereo not shown)
Reply: 0 (no)

Ask: Please let me know if Cn1nc(C(F)(F)F)c(C(Cl)S(=O)(=O)C2=NOC(C)(C)C2)c1Cl (stereo not shown) shows herbicidal damage rating, Sida below 4.
Reply: 1 (yes)

Ask: Does the reported herbicidal damage rating, Sida of CC1(C)CC(S(=O)(=O)C(F)(Cl)c2cccnc2Cl)=NO1 (stereo not shown) stay below 4?
Reply: 1 (yes)

Ask: # strict comparison: is reported herbicidal damage rating, Sida < 4? input = Cc1ccc(F)c(C(F)(F)S(=O)(=O)C2=NOC(C)(C)C2)c1F
Reply: 0 (no)

Ask: Take the compound CC1(C)CC(S(=O)(=O)C(F)(Cl)c2cccc(F)c2F)=NO1 (stereo not shown) and say whether its herbicidal damage rating, Sida is less than 4.
Reply: 1 (yes)

Ask: Lab note: herbicidal damage rating, Sida threshold 4. Does this compound come in strictly under it? CC1(C)CC(S(=O)(=O)C(F)(F)c2cc(F)cc(F)c2)=NO1
Reply: 1 (yes)

====

Provide the reported herbicidal action (damage rating 0-10), Digitaria of each item.
- Test system: Monocotyledonous and dicotyledonous test plants
- assay.overview: Example B1 herbicidal action, application pre-emergence (Table B1b)
- Type: in vivo
- condition.parameters: Digitaria, 250 g/ha, evaluated after 4 weeks
Answers are plain numbers.

[
  {
    "molecule": "Cn1nc(C(F)(F)F)c(C([S+]([O-])C2=NOC(C)(C)C2)C(F)(F)F)c1OCC(F)(F)F (stereo not shown)",
    "result.number": 10
  }
]

For every listed record, write down its herbicidal action (damage rating 0-10), Digitaria.
1. CC1(C)CC(S(=O)(=O)C(c2c(F)cccc2F)S(=O)(=O)Cc2ccccc2)=NO1 (stereo not shown)
2. CC1(C)CC(S(=O)(=O)C(F)(F)c2c(F)cccc2F)=NO1
3. Cn1nc(C(F)(F)F)c(C(Cl)(Cl)S(=O)(=O)C2=NOC(C)(C)C2)c1OC(F)F
4. CC1(C)CC(S(=O)(=O)C(Br)c2cccc(F)c2F)=NO1 (stereo not shown)

Reply:
7
10
10
10
